# Protocol: clinical
# Condition: human, in vivo, iv, t1/2
half-life below 2 h gives Not satisfied; half-life at or above it gives Satisfied.

# Molecule, Class assignment
rows = [
    ("C[C@]12CC[C@@H]3c4ccc(O)cc4CC[C@H]3[C@@H]1CC[C@@H]2O", "Not satisfied"),
    ("CN1Cc2c(N)cccc2C(c2ccccc2)C1 (stereo not drawn)", "Satisfied"),
    ("[H]/N=C(/N)N[C@H]1[C@H](O)[C@@H](O)[C@H](O[C@@H]2O[C@@H](C)[C@](O)(C=O)[C@H]2O[C@@H]2O[C@@H](CO)[C@H](O)[C@@H](O)[C@@H]2NC)[C@@H](N/C(N)=N\\[H])[C@@H]1O", "Satisfied"),
    ("C=CCN1CC[C@]23c4c5ccc(O)c4O[C@H]2C(=O)CC[C@@]3(O)[C@H]1C5", "Not satisfied"),
    ("CC(C)NCC(O)COc1ccc(COCCOC(C)C)cc1 (stereo not drawn)", "Satisfied"),
    ("OC(CCN1CCCC1)(c1ccccc1)C1CCCCC1 (stereo not drawn)", "Satisfied"),
    ("Cn1c(=O)c2c(ncn2CC(O)CO)n(C)c1=O (stereo not drawn)", "Not satisfied"),
    ("CO[C@@]1(NC(=O)Cc2cccs2)C(=O)N2C(C(=O)O)=C(COC(N)=O)CS[C@@H]21", "Not satisfied"),
]

====

# Protocol: clinical
# Condition: human, in vivo, iv, Vdss
Measured Vd, listed per entry.
Measurement type: Vd

# Compound, Measurement type, Val
records = [
    ("Nc1nc(=O)[nH]cc1F [FLUCYTOSINE]", "Vd", "0.68 L/kg"),
    ("CC(C)c1cccc(C(C)C)c1O [PROPOFOL]", "Vd", "4.7 L/kg"),
    ("N=C(N)NC(=O)Cc1c(Cl)cccc1Cl [GUANFACINE]", "Vd", "5.6 L/kg"),
    ("C#C[C@]1(O)CC[C@H]2[C@@H]3CCC4=CC(=O)CC[C@@H]4[C@H]3CC[C@@]21CC [LEVONORGESTREL]", "Vd", "1.5 L/kg"),
    ("CCCC1C(=O)N2C(N(C)C)=Nc3ccc(C)cc3N2C1=O (stereo not drawn) [APAZONE]", "Vd", "0.12 L/kg"),
    ("O=C(O)[C@H]1/C(=C/CO)O[C@@H]2CC(=O)N21 [CLAVULANIC ACID]", "Vd", "0.22 L/kg"),
    ("Nc1ncnc2c1ncn2CCOCP(=O)(O)O [ADEFOVIR]", "Vd", "0.42 L/kg"),
    ("Nc1nc(Cl)nc2c1ncn2[C@H]1C[C@H](O)[C@@H](CO)O1 [CLADRIBINE]", "Vd", "7.7 L/kg"),
    ("CN(C)[C@@H]1C(O)=C(C(=O)NCN2CCCC2)C(=O)[C@@]2(O)C(O)=C3C(=O)c4c(O)cccc4[C@@](C)(O)[C@H]3C[C@@H]12 [ROLITETRACYCLINE]", "Vd", "0.54 L/kg"),
    ("CN(C)CCc1c[nH]c2ccc(Cn3cncn3)cc12 [RIZATRIPTAN]", "Vd", "1.9 L/kg"),
    ("C[C@H]1O[C@H](O[C@H]2[C@H](O)[C@@H](O)[C@@H](O[C@H]3[C@H](O)[C@@H](O)C(O)O[C@@H]3CO)O[C@@H]2CO)[C@H](O)[C@@H](O)[C@@H]1N[C@H]1C=C(CO)[C@@H](O)[C@H](O)[C@H]1O (stereo partly drawn) [ACARBOSE]", "Vd", "0.32 L/kg"),
    ("COC(=O)O[C@@]12CO[C@@H]1C[C@H](O)[C@@]1(C)C(=O)[C@H](OC(C)=O)C3=C(C)[C@@H](OC(=O)[C@H](O)[C@@H](NC(=O)c4ccccc4)c4ccccc4)C[C@@](O)([C@@H](OC(=O)c4ccccc4)[C@H]21)C3(C)C [BMS-188797]", "Vd", "6.9 L/kg"),
    ("CC(=N)N1CC[C@H](SC2=C(C(=O)O)N3C(=O)[C@H]([C@@H](C)O)[C@H]3C2)C1", "Vd", "0.19 L/kg"),
    ("COC(=O)CCc1ccc(OCC(O)CNC(C)C)cc1 (stereo not drawn) [ESMOLOL]", "Vd", "1.2 L/kg"),
    ("NCc1ccccc1CC(=O)N[C@@H]1C(=O)N2C(C(=O)O)=C(CSc3nnnn3CC(=O)O)CS[C@H]12 [CEFORANIDE]", "Vd", "0.17 L/kg"),
    ("CNC1(c2ccccc2Cl)CCCCC1=O (stereo not drawn) [KETAMINE]", "Vd", "2.9 L/kg"),
    ("COc1ccccc1N1CCN(CCCNc2cc(=O)n(C)c(=O)n2C)CC1", "Vd", "0.75 L/kg"),
    ("CC1(C)S[C@@H]2[C@H](NC(=O)[C@H](NC(=O)N3CCN(S(C)(=O)=O)C3=O)c3ccccc3)C(=O)N2[C@H]1C(=O)O [MEZLOCILLIN]", "Vd", "0.09 L/kg"),
    ("O=C(CCCN1CCC(n2c(O)nc3ccccc32)CC1)c1ccc(F)cc1 [BENPERIDOL]", "Vd", "3.8 L/kg"),
    ("CCOc1ccccc1OC(c1ccccc1)C1CNCCO1 (stereo not drawn) [REBOXETINE]", "Vd", "0.65 L/kg"),
    ("C[C@H](/C=C/[C@H](C)C(C)(C)O)[C@H]1CC[C@H]2/C(=C/C=C3C[C@@H](O)C[C@H](O)C3)CCC[C@]12C [PARICALCITOL]", "Vd", "0.41 L/kg"),
    ("Cc1cnc(NCCCN(C)C)c2c1[nH]c1ccc3cc(O)ccc3c12 [INTOPLICINE]", "Vd", "11 L/kg"),
    ("C[C@@H]1O[C@@H]1P(=O)(O)O [FOSFOMYCIN]", "Vd", "0.32 L/kg"),
    ("CCN(CC)C(=O)/C(C#N)=C/c1cc(O)c(O)c([N+](=O)[O-])c1 [ENTACAPONE]", "Vd", "0.27 L/kg"),
    ("C[C@H]1c2cccc(O)c2C(=O)C2=C(O)[C@]3(O)C(=O)C(C(N)=O)=C(O)[C@@H](N(C)C)[C@@H]3[C@@H](O)[C@@H]21.O [DOXYCYCLINE]", "Vd", "0.69 L/kg"),
    ("N=C(N)c1ccc(OCCCCCOc2ccc(C(=N)N)cc2)cc1 [PENTAMIDINE]", "Vd", "53 L/kg"),
    ("Cc1nnc2n1-c1ccc(Cl)cc1C(c1ccccc1)=NC2 [ALPRAZOLAM]", "Vd", "0.8 L/kg"),
    ("O=[N+]([O-])O[C@@H]1CO[C@H]2[C@@H]1OC[C@@H]2O (stereo in doubt; form 2) [ISOSORBIDE MONONITRATE]", "Vd", "0.7 L/kg"),
    ("C=C(CC)C(=O)c1ccc(OCC(=O)O)c(Cl)c1Cl [ETHACRYNIC ACID]", "Vd", "0.26 L/kg"),
    ("CC1(C)S[C@@H]2[C@H](NC(=O)Cc3ccccc3)C(=O)N2[C@H]1C(=O)O [PENICILLIN G]", "Vd", "0.24 L/kg"),
    ("Nc1ccn([C@@H]2O[C@H](CO)[C@@H](O)C2(F)F)c(=O)n1 [GEMCITABINE]", "Vd", "1.5 L/kg"),
    ("CC(C)(C)NCC(O)c1cc(O)cc(O)c1 (stereo not drawn) [TERBUTALINE]", "Vd", "1.5 L/kg"),
    ("N[C@@H](Cc1ccc(N(CCCl)CCCl)cc1)C(=O)O", "Vd", "0.48 L/kg"),
]

From: ChEMBL document CHEMBL1614632
